Source of measurements: ChEMBL document CHEMBL1149451

target: UniProtKB Q02763; assay: Inhibition of human TIE2 expressed in Sf9 cells at 10 uM; conditions: values are per cent of control
Sequence (Q02763 whole entry): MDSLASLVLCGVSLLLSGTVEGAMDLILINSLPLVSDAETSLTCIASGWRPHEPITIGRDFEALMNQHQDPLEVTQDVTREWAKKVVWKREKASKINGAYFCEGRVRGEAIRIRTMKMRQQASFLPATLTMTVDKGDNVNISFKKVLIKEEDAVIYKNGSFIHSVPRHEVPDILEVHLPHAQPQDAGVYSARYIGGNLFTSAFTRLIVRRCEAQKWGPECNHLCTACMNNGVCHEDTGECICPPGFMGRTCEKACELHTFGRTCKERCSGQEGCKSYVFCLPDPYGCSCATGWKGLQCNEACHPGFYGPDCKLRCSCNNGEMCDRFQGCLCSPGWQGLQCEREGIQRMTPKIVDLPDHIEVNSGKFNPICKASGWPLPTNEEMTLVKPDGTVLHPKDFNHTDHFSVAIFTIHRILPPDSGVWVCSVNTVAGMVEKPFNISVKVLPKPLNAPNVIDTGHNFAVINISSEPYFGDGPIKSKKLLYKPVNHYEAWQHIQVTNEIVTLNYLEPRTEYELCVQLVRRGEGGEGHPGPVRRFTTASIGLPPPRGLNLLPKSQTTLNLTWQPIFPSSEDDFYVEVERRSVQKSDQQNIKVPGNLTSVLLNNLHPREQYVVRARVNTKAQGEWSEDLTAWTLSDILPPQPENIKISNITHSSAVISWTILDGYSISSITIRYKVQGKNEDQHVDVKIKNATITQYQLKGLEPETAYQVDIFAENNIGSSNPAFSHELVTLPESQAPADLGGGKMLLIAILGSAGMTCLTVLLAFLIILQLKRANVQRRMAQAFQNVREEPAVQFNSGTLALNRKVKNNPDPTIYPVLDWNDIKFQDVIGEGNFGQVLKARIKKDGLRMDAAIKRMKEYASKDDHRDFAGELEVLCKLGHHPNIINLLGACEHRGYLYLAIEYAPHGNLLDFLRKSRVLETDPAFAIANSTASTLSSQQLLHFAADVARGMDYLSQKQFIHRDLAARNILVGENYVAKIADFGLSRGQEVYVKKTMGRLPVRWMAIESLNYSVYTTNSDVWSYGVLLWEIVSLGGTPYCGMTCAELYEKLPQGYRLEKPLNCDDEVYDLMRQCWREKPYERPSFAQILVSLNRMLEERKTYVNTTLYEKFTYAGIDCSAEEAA
Recorded residual activity, one value per entry.
Quantity Kind: residual activity (%)

# Compound, Quantity Kind, Value
rows = [
    ("COc1ccc(C2=C(c3ccccc3)C(=O)NC2=O)cc1", "residual activity", 101),
    ("O=C1NC(=O)C(c2c[nH]c3ccccc23)=C1c1ccc(Cl)cc1", "residual activity", 108),
    ("O=C1NC(=O)C(c2c[nH]c3ccccc23)=C1c1cccc2ccccc12", "residual activity", 71),
    ("COc1ccc(C2=C(c3ccc(OC)cc3)C(=O)NC2=O)cc1", "residual activity", 109),
    ("COc1cc2c3c(c4c5ccccc5n(C)c4c2c(OC)c1OC)C(=O)NC3=O", "residual activity", 32),
    ("COc1ccc(C2=C(c3cc(OC)c(OC)c(OC)c3)C(=O)NC2=O)cc1O", "residual activity", 101),
    ("COc1cc(C2=C(c3c(-c4ccccc4)[nH]c4ccccc34)C(=O)NC2=O)cc(OC)c1OC", "residual activity", 119),
    ("COc1cc(C2=C(c3c[nH]c4ccccc34)C(=O)NC2=O)cc(OC)c1OC [MALEIMIDE]", "residual activity", 14),
    ("COc1cc(C2=C(c3cn(C)c4ccccc34)C(=O)NC2=O)cc(OC)c1OC", "residual activity", 51),
    ("COc1cc2c3c(c4c5ccccc5[nH]c4c2c(OC)c1OC)C(=O)NC3=O", "residual activity", 81),
    ("COc1cc(C2=C(c3c(C)[nH]c4ccccc34)C(=O)NC2=O)cc(OC)c1OC", "residual activity", 45),
    ("COc1ccc(C2=C(c3ccccc3)C(=O)NC2=O)cc1OC", "residual activity", 100),
    ("COc1ccc(C2=C(c3cc(OC)c(OC)c(OC)c3)C(=O)NC2=O)cc1", "residual activity", 108),
    ("O=C1NC(=O)c2c1c1ccccc1c1[nH]c3ccccc3c21", "residual activity", 136),
    ("COc1cc(C2=C(c3ccccc3)C(=O)NC2=O)cc(OC)c1OC", "residual activity", 103),
    ("COc1cc(C2=C(c3cc[nH]c3)C(=O)NC2=O)cc(OC)c1OC", "residual activity", 116),
    ("O=C1NC(=O)C(c2c[nH]c3ccccc23)=C1c1ccccc1", "residual activity", 51),
    ("COc1ccc(C2=C(c3c[nH]c4ccccc34)C(=O)NC2=O)cc1OC", "residual activity", 65),
    ("COc1ccc(C2=C(c3c[nH]c4ccccc34)C(=O)NC2=O)cc1", "residual activity", 93),
    ("O=C1NC(=O)C(c2ccccc2)=C1c1ccccc1", "residual activity", 99),
    ("COc1ccc2[nH]c3c4c(OC)c(OC)c(OC)cc4c4c(c3c2c1)C(=O)NC4=O", "residual activity", 61),
    ("COc1cc(C2=C(c3cc4ccccc4[nH]3)C(=O)NC2=O)cc(OC)c1OC", "residual activity", 103),
]

* * *

molecular target: Protein kinase C gamma type (Rattus norvegicus); assay: Inhibition of rat PKC gamma expressed in Sf9 cells at 100 uM; conditions: values are per cent of control

# Record Smiles, residual activity [%]
measured = [
    ("COc1cc2c3c(c4c5ccccc5[nH]c4c2c(OC)c1OC)C(=O)NC3=O", 76),
    ("O=C1NC(=O)C(c2c[nH]c3ccccc23)=C1c1cccc2ccccc12", 22),
    ("O=C1NC(=O)C(c2c[nH]c3ccccc23)=C1c1ccc(Cl)cc1", 119),
    ("O=C1NC(=O)C(c2c[nH]c3ccccc23)=C1c1ccccc1", 82),
    ("COc1ccc(C2=C(c3c[nH]c4ccccc34)C(=O)NC2=O)cc1", 93),
    ("COc1cc(C2=C(c3cc4ccccc4[nH]3)C(=O)NC2=O)cc(OC)c1OC", 82),
    ("COc1cc(C2=C(c3cc[nH]c3)C(=O)NC2=O)cc(OC)c1OC", 93),
    ("COc1cc(C2=C(c3c(C)[nH]c4ccccc34)C(=O)NC2=O)cc(OC)c1OC", 103),
    ("COc1cc2c3c(c4c5ccccc5n(C)c4c2c(OC)c1OC)C(=O)NC3=O", 82),
    ("COc1ccc(C2=C(c3ccccc3)C(=O)NC2=O)cc1OC", 96),
]
